# assayed-system: T1, ΔhASIC1a-nanodiscs (Homo sapiens, UniProt P78348)
# T1 construct: A truncated ASIC1a (amino acids 13-464; ΔhASIC1a) was overexpressed and purified; made in house; host or cells: HEK293F (BacMam baculovirus)
# T1 sequence (P78348 13-464, stated change not applied): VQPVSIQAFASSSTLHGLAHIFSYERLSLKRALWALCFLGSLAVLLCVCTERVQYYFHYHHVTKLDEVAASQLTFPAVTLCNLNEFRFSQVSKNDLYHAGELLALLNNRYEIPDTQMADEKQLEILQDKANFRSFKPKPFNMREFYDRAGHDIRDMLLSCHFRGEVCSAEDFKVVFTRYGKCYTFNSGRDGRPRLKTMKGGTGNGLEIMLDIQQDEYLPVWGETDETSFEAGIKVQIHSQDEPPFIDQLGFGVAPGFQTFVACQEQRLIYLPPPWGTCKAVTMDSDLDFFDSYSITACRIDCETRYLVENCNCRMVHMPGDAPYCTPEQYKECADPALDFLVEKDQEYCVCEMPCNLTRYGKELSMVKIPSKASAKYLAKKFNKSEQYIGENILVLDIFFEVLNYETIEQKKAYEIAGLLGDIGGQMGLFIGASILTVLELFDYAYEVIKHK
# T1 sequence (P02647 68-267 partner limits assumed): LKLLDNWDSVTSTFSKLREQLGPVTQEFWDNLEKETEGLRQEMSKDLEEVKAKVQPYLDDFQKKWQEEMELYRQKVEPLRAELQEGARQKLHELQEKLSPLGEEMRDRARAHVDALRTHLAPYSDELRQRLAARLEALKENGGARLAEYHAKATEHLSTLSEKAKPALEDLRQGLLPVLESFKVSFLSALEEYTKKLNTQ
# assay-overview: Binding affinities of scFv antibodies to ΔhASIC1a-nanodiscs, Octet system
# condition-summary: scFv format; Conc. 500 nM; Octet system
readout: Response
Answers are plain numbers.

• ASC04: anti-ASIC1a scFv antibody, VH SEQ ID NO: 32 and VL SEQ ID NO: 37 (antibody, V domains shown, scFv linker; Amino acid sequence of ASC04 VH; Amino acid sequence of ASC04 VL) VH: QVQLVQSGAEVKKPGSSVKVSCKASGGTFSTYAINWVRQAPGQGLEWMGWMNPNSGNTGYAQKFQGRVTMTRNTSISTAYMELSSLRSEDTAVYYCARYSYGMDVWGQGTTVTVSS VL: QAVLTQPSSLSASPGASVSLTCTLRSGINVGAYRIYWYQQKPGSPPQFLLRYKSDSDKQQGSGVPSRFSGSRDASANAGILLISGLRSEDEADYYCAIWHSSAWVFGGGTKLTVLG = 0.995

The reported value for ASC06: anti-ASIC1a scFv antibody, VH SEQ ID NO: 52 and VL SEQ ID NO: 57 (antibody, V domains shown, scFv linker; Amino acid sequence of ASC06 VH; Amino acid sequence of ASC06 VL) VH: QVQLQQSGGGLVQPGGSLRLSCAASGFTFSSYAMSWVRQAPGKGLEWVSAISGSGGSTYYADSVKGRFTISRDNSKNTLYLQMNSLRAEDTAVYYCAKDSFYGYSKGDWGQGTLVTVSS VL: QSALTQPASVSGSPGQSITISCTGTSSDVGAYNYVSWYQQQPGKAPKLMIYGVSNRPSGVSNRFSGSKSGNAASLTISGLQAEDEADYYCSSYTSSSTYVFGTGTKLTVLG in terms of Response is 0.5712
